Tested on: HL-60(TB) leukemia
Assay: NCI tumour cell line growth inhibition, 48 h
Entries and their TGI values follow.

Worked cases, TGI given:
>>> print(df.to_string())
                                   molecule              system  test_value
0  C=CC(COC(=O)C(C)(C)OC(C)=O)c1ccc(OC(=O)C(C)C)c(OC)c1 (configuration not stated)  HL-60(TB) leukemia     > 49 µM
1  N#CC1=C(N)NC(=S)NC1c1ccc(-c2ccc(-c3nc4ccccc4o3)cc2)s1 (configuration not stated)  HL-60(TB) leukemia     > 50 µM
2  O=c1[nH]c2cc([N+](=O)[O-])ccc2nc1/C(=N/Nc1ccccc1)C(O)c1ccco1 (configuration not stated)  HL-60(TB) leukemia    > 100 µM
3     c1ccc2c(c1)nn1c3ccc4nonc4c3[n-][n+]21  HL-60(TB) leukemia    > 100 µM
4                 CCC(=O)NI1OC(=O)c2ccccc21  HL-60(TB) leukemia    > 100 µM

Tell me measured TGI for O=C1CC[C@H](N2Cc3c(OCc4ccc(CN5CCOCC5)cc4)cccc3C2=O)C(=O)N1 please.
> 100 µM

Tell me measured TGI for CC1C2CCC3C(O)C2(CC(O)C2(O)C1CC(O)C2(C)C)CC3(C)O (configuration not stated) please.
> 100 µM

Tell me measured TGI for O=C(O)Cc1ccc(Nc2nc3ccccc3nc2C(=O)O)cc1 please.
> 100 µM

Tell me measured TGI for CCCCN(CCCC)CCC(O)c1cc(-c2ccc(C(F)(F)F)cc2)nc(-c2ccc(C(F)(F)F)cc2)c1 (configuration not stated) please.
> 100 µM

###

Test system: NCI-H522 lung
Assay: NCI tumour cell line growth inhibition, 48 h
Entries and their TGI values follow.

Worked cases, TGI given:
molecule	test.value
COC1CC(OC2CCC3(C)C(=CCC4C3C(OC(C)=O)C(OC(=O)CC(C)C)C3(C)C(C(C)=O)CCC43O)C2)OC(C)C1OC1CC(OC)C(OC2CC(OC)C(OC3OC(C)C(O)C(OC)C3O)C(C)O2)C(C)O1 (centres undefined)	> 100 µM
COc1cccc2c1C1(O)C2CCCCCCCCCC12OCCCO2 (centres undefined)	> 96.5 µM
CN(CCO)Cc1ncccc1O	> 100 µM

# ---- query molecule ----
Tell me measured TGI for [N-]=[N+]=NC1(c2ccccc2)C(=O)C(Cl)=C(c2ccccc2)N(c2ccccc2)C1=O (centres undefined) please.
> 100 µM

###

Entries and their TGI values follow.
Tested on: HOP-92 NSCLC
Test: NCI tumour cell line growth inhibition, 48 h
Note: unit µM is implicit; provide only the numeric part.

molecule	reading.unit	TGI
CC[C@H](C)C1=C(OC(C)=O)[N@+]2([O-])Oc3ccc(-c4c(O)c(O)c(-c5ccc(OC(C)=O)cc5)c(OC(C)=O)c4OC(C)=O)cc3O[C@]2([C@@H](C)CC)C(=O)N1O	µM	23
CC(C)=Cc1cc(C)c2c3c(c(O)c(O)c(C)c13)C(C)=CC2=O	µM	38.6
C[C@]12CC[C@@H]3c4ccc(O)cc4CC[C@H]3[C@@H]1CC[C@@H]2NS(=O)(=O)c1ccc(Br)cc1	µM	4.93
O=C1Nc2cc(-c3cccc(O)c3)ccc2/C1=C/c1ccc[nH]1	µM	6.26

Tell me measured TGI for c1ccc2cc3c(cc2c1)Nc1c2ccccc2nc2cccc-3c12 please.
2.86

Tell me measured TGI for CN(C)CCNCc1ccc2c(-c3ccccc3)nc3cc(Cl)c(Cl)cc3n12 please.
28.3

###

Test system: SK-MEL-5 melanoma
Experiment: NCI tumour cell line growth inhibition, 48 h
measure.name: TGI

Tell me measured TGI for c1ccc2c(c1)nn1c3ccc4nonc4c3[n-][n+]21 please.
> 100 µM

###

Test system: CAKI-1 renal
Experiment: NCI tumour cell line growth inhibition, 48 h; in the data active = GI50 below about 0.43 µM; inactive = the rest
In this exercise, the only acceptable responses are label 1 = active, label 0 = inactive

>>> print(df.to_string())
                                   compound  class_label
0  [N-]=[N+]=NCCCn1c2c(c3ccc([N+](=O)[O-])cc3c1=O)C(=O)c1cc3c(cc1-2)OCO3      label 1

Assay outcome for Cc1cc(-c2nnc(/C=C/c3ccc4c(c3)OCO4)o2)n[nH]1 : what was it?
label 0

Assay outcome for N#CC1=C(N)NC(=S)NC1c1ccc(-c2ccc(-c3nc4ccccc4o3)cc2)s1 (stereo not drawn) : what was it?
label 0

###

System: EKVX NSCLC
Assay: NCI tumour cell line growth inhibition, 48 h
Entries and their TGI values follow.

Worked cases, TGI given:
In [3]: df
Out[3]:
                                   compound      system  test_value
0  CCOC(=O)C(Cc1c[nH]c2cc(N(CCO)CCO)ccc12)(NC(C)=O)C(=O)OCC  EKVX NSCLC   > 1000 µM
1  Cc1ccc(S(=O)(=O)NC(=O)Nc2cccc(S(N)(=O)=O)c2)cc1  EKVX NSCLC    > 100 µM

Tell me measured TGI for COC(=O)CCC1=NCC(C)(C)O1 please.
> 10 µM

Tell me measured TGI for CN(C)C(=O)OCc1nc2c(N3CCOCC3)nc(-c3ccccc3)nc2n1C please.
2.95 µM

Tell me measured TGI for N#Cc1cc2c(cc1C#N)/C(=N\c1cccc(N)n1)N=C2Nc1cccc(N)n1 please.
> 100 µM

Tell me measured TGI for C=C1C(=O)OC2C1C(OC(=O)/C(C)=C/C)CC(O)(CCl)C1C(O)C=C(C)C21O (stereo unspecified) please.
29.9 µM

###

Entries and their TGI values follow.
Tested on: RXF 393 renal
Assay: NCI tumour cell line growth inhibition, 48 h

>>> df
                           smiles_code         system  test_value
0  Cc1cc(C(=O)Nc2n[nH]c3ccccc23)n[nH]1  RXF 393 renal    > 100 µM

Tell me measured TGI for Cc1cc(-c2nnc(/C=C/c3ccc4c(c3)OCO4)o2)n[nH]1 please.
> 50 µM

Tell me measured TGI for Cc1c[nH]c(C(=O)O)c1-c1cccn1-c1ccc(Cl)cc1[N+](=O)[O-] please.
> 100 µM

###

Entries and their TGI values follow.
Tested on: HS 578T breast
Assay: NCI tumour cell line growth inhibition, 48 h

Worked cases, TGI given:
>>> print(df.to_string())
                                smiles_code          system  test_value
0  O=C1/C=C/[C@@H](O)[C@@H]2C[C@@H](O)C[C@H]2/C=C/CCC[C@H](CCc2ccc3ncccc3c2)O1  HS 578T breast    > 100 µM
1                     CC(C)=NNc1snnc1C(N)=O  HS 578T breast    > 100 µM

# ---- query compound ----
Tell me measured TGI for CCN(CC)Cc1ccccc1CC(=O)N1c2ccccc2C(=O)Nc2cccnc21 please.
> 100 µM

###

Test system: M14 melanoma
Assay: NCI tumour cell line growth inhibition, 48 h
Entries and their TGI values follow.

Worked cases, TGI given:
>>> print(df.to_string())
                                smiles_code        system  test_value
0  Cc1ccc(/C=C/C(=N/NC(=O)N/N=C(/C=C/c2ccc(C)cc2)C(C)C)C(C)C)cc1  M14 melanoma     > 10 µM
1          CNCCCNC(=S)Cn1cc(C)c(=O)[nH]c1=O  M14 melanoma   > 69.6 µM
2  O=C(c1ccco1)N(C(=S)N1CCN(c2ccccc2)CC1)C1CCCCC1  M14 melanoma    > 100 µM

Tell me measured TGI for Cc1ccc(C(=O)c2sc3nc4c(cc3c2N)CCCC4)c(C)c1 please.
> 100 µM

Tell me measured TGI for Cc1c[nH]c(C(=O)O)c1-c1cccn1-c1ccc(Cl)cc1[N+](=O)[O-] please.
> 100 µM

Tell me measured TGI for O=C(O)Cc1ccc(Nc2nc3ccccc3nc2C(=O)O)cc1 please.
> 100 µM

###

Entries and their TGI values follow.
Tested on: MCF7 breast
Assay: NCI tumour cell line growth inhibition, 48 h

Worked cases, TGI given:
>>> print(df.to_string())
                            smiles_code  test_value
0  O=C1CNC(=O)/C(=C/c2c[nH]c3ccccc23)N1    > 100 µM
1                    Cc1csc(NNC(N)=O)n1    > 100 µM

Tell me measured TGI for O=C1C[C@H](COCc2ccccc2)NC(=O)C[C@H](COCc2ccccc2)NC(=O)C[C@H](COCc2ccccc2)N1 please.
> 100 µM

###

Tested on: SK-MEL-5 melanoma
Assay: NCI tumour cell line growth inhibition, 48 h
Entries and their TGI values follow.

Worked cases, TGI given:
                                   compound  measure_name  test_value
0    CNC(=O)N(CCC#N)CCN(C(=O)N(C)C)c1ccccc1           TGI    > 100 µM
1  Cc1ccc(S(=O)(=O)NC(=O)Nc2cccc(S(N)(=O)=O)c2)cc1           TGI    > 100 µM

Fill in TGI for Cc1ccc(S(=O)(=O)NC(=O)NCCc2ccccc2)cc1 tested with SK-MEL-5 melanoma.
> 100 µM

Fill in TGI for CCOC(=O)Nc1sc2c(c1C#N)CC(C)CC2 (stereo unspecified) tested with SK-MEL-5 melanoma.
16.6 µM

Fill in TGI for CC1=C(C(=O)NCc2ccccc2)C(c2ccc(Cl)c(Cl)c2)C(C(=O)NCc2ccccc2)=C(C)N1 tested with SK-MEL-5 melanoma.
> 100 µM

Fill in TGI for COC(=O)C1CCC(=O)N1CN(C(C)=O)c1cc(OC)ccc1OC (stereo unspecified) tested with SK-MEL-5 melanoma.
> 100 µM

// data source = PubChem BioAssay (NCI)
